system tested: T1, extracellular domain of activin receptor type IIB (ActRIIBecd), biotinylated (Homo sapiens (Human), UniProt Q13705 27-117, amino-biotinylated with amine-PEG3-Biotin)
T1 construct: immobilised on a streptavidin-coated sensor chip; also called biotinylated ActRIIBecd; extracellular domain of ActRIIB
T1 sequence: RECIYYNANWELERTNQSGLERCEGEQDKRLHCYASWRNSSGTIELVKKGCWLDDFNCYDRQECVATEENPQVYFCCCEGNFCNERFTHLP
test details: Mean KD column of Table 5; method not restated (BIAcore as Example 5)
The following binders are listed with their measured Kd values.

binder | Kd
SEQ ID NO: 348, cysteine pairs C88-C92^a (designed binder, disulfides C88-C92 (intra)) GQAKRKGYKRLKSSCKRHPLYNSKIPKACCVPTELSAISMLYLDENEKVVLKNYQDMVVEGCGCRVDFSDVGWNDWIVAPPGYHAFYCHGECPFPLADHLNSTNHAIVQTLVNSV | 4.51 nM
SEQ ID NO: 260, cysteine pairs C79-C114^b, C80-C112^b, C44-C48^a (designed binder, disulfides C79-C114 (inter), C80-C112 (inter), C44-C48 (intra), homodimer by intermolecular disulfide) AQAKHKQRKRLKSSCKRHPLYVDFSDVGWNDWIVAPPGYHAFYCHGECPFPLADHLNSTNHAIVQTLVNSVNSKIPKACCVPTELSAISMLYLDENEKVVLKNYQDMVVEGCGCR | 6.05 nM
SEQ ID NO: 340, cysteine pairs C88-C92^a (designed binder, disulfides C88-C92 (intra)) AQAKHKQRKRLKSSCKRHPLYNSKDPKACCVPTELSAPSPLYLDENEKPVLKNYQDMVVHGCGCRVDFKDVGWNDHAVAPPGYHAFYCHGECPFPLADHLNSDNHAIVQTKVNSV | 5.64 nM
SEQ ID NO: 316, cysteine pairs C67-C71^a (designed binder, disulfides C67-C71 (intra)) NSKDPKACCVPTELSAPSPLYLDENEKPVLKNYQDMVVHGCGCRVDFKDVGWNDHAVAPPGYHAFYCHGECPFPLADHLNSDNHAIVQTKVNSVGQAKRKGYKRLKSSCKRHPLY | 4.67 nM
SEQ ID NO: 324, cysteine pairs C44-C48^a (designed binder, disulfides C44-C48 (intra)) AQAKHKQRKRLKSSCKRHPLYVDFKDVGWNDHAVAPPGYHAFYCHGECPFPLADHLNSDNHAIVQTKVNSVNSKIPKACCVPTELSAISMLYLDENEKVVLKNYQDMVVEGCGCR | 8.75 nM
SEQ ID NO: 268, cysteine pairs C23-C27^a (designed binder, disulfides C23-C27 (intra)) VDFSDVGWNDWIVAPPGYHAFYCHGECPFPLADHLNSTNHAIVQTLVNSVAQAKHKQRKRLKSSCKRHPLYNSKIPKACCVPTELSAISMLYLDENEKVVLKNYQDMVVEGCGCR | 8.41 nM
SEQ ID NO: 260, cysteine pairs C15-C15^b, C80-C114^b, C79-C112^b, C44-C48^a (designed binder, disulfides C15-C15 (inter), C80-C114 (inter), C79-C112 (inter), C44-C48 (intra), homodimer by intermolecular disulfide) AQAKHKQRKRLKSSCKRHPLYVDFSDVGWNDWIVAPPGYHAFYCHGECPFPLADHLNSTNHAIVQTLVNSVNSKIPKACCVPTELSAISMLYLDENEKVVLKNYQDMVVEGCGCR | 4.04 nM
SEQ ID NO: 260, cysteine pairs C44-C48^a (designed binder, disulfides C44-C48 (intra)) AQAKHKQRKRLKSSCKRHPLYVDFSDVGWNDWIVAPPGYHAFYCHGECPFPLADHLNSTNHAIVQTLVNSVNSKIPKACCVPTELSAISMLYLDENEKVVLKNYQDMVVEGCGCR | 8.04 nM

Reference source: patent US20190071480A1
